Biological target: FGF2 (Homo sapiens, UniProt P09038 P09038:135-288)
Sequence (P09038 135-288, one chain of several): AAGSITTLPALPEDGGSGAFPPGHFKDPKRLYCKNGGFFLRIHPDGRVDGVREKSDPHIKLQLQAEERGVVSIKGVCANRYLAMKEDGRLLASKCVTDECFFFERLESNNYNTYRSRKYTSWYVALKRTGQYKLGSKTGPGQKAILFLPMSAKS
Assay: inhibition; SPR inhibition of FGF2-FGFR1alpha(IIIc); each 0.1 uM
Conditions: tags: Peprotech
Measurement name: activity
The answer should read as a number with its unit following.

**Q:** Provide only the value of recorded activity for GGGAUACUAGGGCAUUAAUGUUACCAGUGUAGUCCC (ssRNA, all C and U 2'-F; 2'-OMe at A23; other purines 2'-OH) [aptamer ID 3(6)]
**A:** 78%

**Q:** For the binder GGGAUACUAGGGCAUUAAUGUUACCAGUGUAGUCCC (ssRNA, 2'-F at U8,U16,U21,U28,U30; 2'-OH at G12,G27,G29; all others 2'-OMe; PS between U28 and G29) [aptamer ID 3(32)] , give its measured activity value.
**A:** 91%

**Q:** Output activity of GGGGAUACUAGGGCAUUAAUGUUACCAGUGUAGUCCCC (ssRNA, 2'-F at U9,U17,U22,U29,U31; 2'-OH at G13,G28,G30; all others 2'-OMe; 3' idT) [aptamer ID 5]
**A:** 94%

**Q:** Annotate the binder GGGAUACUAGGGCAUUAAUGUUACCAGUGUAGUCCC (ssRNA, all C and U 2'-F; 2'-OMe at G1,G2,G3,A4,A9,G10,G11,A14,A17,A18,G20,A23,A26; other purines 2'-OH; 3' idT) [aptamer ID 3(8)] with its measured activity.
**A:** 84%

**Q:** Could you please provide reported activity for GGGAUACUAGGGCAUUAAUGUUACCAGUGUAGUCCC (ssRNA, 2'-F at U8,U16,U21,U28,U30; 2'-OH at G12,G27,G29; all others 2'-OMe; 5' idT) [aptamer ID 3(20)] ? Thanks!
**A:** 96%

**Q:** Input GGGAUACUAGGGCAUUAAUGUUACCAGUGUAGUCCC (ssRNA, 2'-F at U8,U16,U21,G27,U28,U30; 2'-OH at G12,G29; all others 2'-OMe) [aptamer ID 3(26)] , output reported activity.
**A:** 99%
